Items are presented alongside their recorded CC50 at 24 h.
Experiment: Cytotoxicity (MTT or CellTiter 96), HeLa
Assay type: cell-based
Conditions: human, HeLa cells; 24 hour incubation; mean ± SD, 3 replicates
Method: Following a 24 hour incubation period, cell viability was measured using either the MTT (Roche Applied Science, Indianapolis, IN) or CellTiter 96 proliferation (Promega, WI) assay.
Record the value in µM, omitting the unit from your answer.

Give CC50 at 24 h for the following compound: COc1cc2c(cc1OC)-c1c(OC)c(OC)cc3ccnc(c13)C2=O
293

Give CC50 at 24 h for the following compound: O=C(CCCCCCC(=O)Nc1ccccc1)NO [SAHA, vorinostat, reference compound]
11.3

----------
target: HDAC8 (Homo sapiens)
Sequence (Q9BY41 whole entry): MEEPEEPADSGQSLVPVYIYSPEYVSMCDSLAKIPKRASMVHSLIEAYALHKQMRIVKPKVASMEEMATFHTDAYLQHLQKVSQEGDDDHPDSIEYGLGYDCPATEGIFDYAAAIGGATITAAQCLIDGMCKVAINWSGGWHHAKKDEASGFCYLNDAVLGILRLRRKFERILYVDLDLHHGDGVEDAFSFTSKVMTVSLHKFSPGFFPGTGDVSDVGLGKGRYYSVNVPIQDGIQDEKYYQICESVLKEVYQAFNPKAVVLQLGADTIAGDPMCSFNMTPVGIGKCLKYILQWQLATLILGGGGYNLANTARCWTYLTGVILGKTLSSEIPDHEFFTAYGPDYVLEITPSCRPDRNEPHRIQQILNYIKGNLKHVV
pIC50: −log10 of the molar value.
measurement.kind: pIC50

Tell me pIC50 of COc1cc2c(cc1OC)-c1c(OC)c(OC)cc3ccnc(c13)C2=O when tested on HDAC8 (Homo sapiens).
< 4.30

----------
target: HDAC2 (Homo sapiens, UniProt Q92769); test: biochemical; conditions: recombinant purified enzyme; read-out: 57704 IC50, HDAC2
Sequence (Q92769 whole entry): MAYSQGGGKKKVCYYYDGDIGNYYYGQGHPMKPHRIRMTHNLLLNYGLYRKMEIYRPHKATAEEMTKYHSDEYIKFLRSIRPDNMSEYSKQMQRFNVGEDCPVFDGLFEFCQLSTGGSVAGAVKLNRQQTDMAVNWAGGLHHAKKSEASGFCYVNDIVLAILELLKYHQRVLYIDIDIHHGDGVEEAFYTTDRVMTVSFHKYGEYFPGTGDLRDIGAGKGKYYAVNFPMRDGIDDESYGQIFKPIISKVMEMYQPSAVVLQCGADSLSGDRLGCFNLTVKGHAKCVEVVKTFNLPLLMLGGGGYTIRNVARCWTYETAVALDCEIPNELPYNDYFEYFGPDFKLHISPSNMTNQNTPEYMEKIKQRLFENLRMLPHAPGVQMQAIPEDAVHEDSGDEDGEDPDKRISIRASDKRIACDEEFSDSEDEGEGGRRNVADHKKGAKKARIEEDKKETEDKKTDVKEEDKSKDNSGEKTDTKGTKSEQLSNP
measurement.kind: IC50

Give IC50 for the following compound: COc1cc2c(cc1OC)-c1c(OC)c(OC)cc3ccnc(c13)C2=O
> 50 µM

----------
assay: Cytotoxicity (MTT or CellTiter 96), Jurkat; type: cell-based; details: human, Jurkat cells; 24 hour incubation; mean ± SD, 3 replicates
measurement.kind: CC50 at 24 h (µM)
Record the value in µM, omitting the unit from your answer.

- molecule: "O=C(CCCCCCC(=O)Nc1ccccc1)NO [SAHA, vorinostat, reference compound]"
  CC50 at 24 h [µM]: 10

Give CC50 at 24 h for the following molecule: COc1cc2c(cc1OC)-c1c(OC)c(OC)cc3ccnc(c13)C2=O
92.9

----------
assay: Cytotoxicity (MTT or CellTiter 96), 293T; assay type: cell-based; conditions: human, 293T cells; 24 hour incubation; mean ± SD, 3 replicates
measurement.kind: CC50 at 24 h
// return the numeric value with its unit appended

- molecule: "O=C(CCCCCCC(=O)Nc1ccccc1)NO [SAHA, vorinostat, reference compound]"
  CC50 at 24 h: "14.1 µM"

Turning to the following molecule.
Give CC50 at 24 h for the following molecule: COc1cc2c(cc1OC)-c1c(OC)c(OC)cc3ccnc(c13)C2=O [Compound 57704]
106 µM

----------
target: HDAC3 (Homo sapiens, UniProt O15379); construct: purchased BPS Bioscience (San Diego, CA); assay: Fluorogenic HDAC activity assay, HDAC3 complexed with NCOR2; format: biochemical
Sequence (O15379 whole entry): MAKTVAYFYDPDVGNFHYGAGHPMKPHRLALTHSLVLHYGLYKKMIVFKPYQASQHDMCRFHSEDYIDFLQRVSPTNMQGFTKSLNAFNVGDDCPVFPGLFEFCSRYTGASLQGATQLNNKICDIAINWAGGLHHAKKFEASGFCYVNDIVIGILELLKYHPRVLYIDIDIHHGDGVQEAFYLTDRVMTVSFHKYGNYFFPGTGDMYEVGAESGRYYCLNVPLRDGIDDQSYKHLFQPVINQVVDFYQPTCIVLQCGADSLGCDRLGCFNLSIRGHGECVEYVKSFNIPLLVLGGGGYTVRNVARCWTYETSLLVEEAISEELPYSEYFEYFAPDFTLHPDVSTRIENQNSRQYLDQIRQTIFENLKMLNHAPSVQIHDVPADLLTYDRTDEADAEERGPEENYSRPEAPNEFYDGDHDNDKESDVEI
Sequence (Q9Y618 395-489 partner limits assumed): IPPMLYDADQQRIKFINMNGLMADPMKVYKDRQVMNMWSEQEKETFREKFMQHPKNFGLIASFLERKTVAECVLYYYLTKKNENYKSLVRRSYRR
pIC50: −log10 of the molar value.
measurement.kind: pIC50

Give pIC50 for the following compound: COc1cc2c(cc1OC)-c1c(OC)c(OC)cc3ccnc(c13)C2=O [Compound 57704]
< 4.30

----------
target: HDAC1 (Homo sapiens)
Sequence (Q13547 whole entry): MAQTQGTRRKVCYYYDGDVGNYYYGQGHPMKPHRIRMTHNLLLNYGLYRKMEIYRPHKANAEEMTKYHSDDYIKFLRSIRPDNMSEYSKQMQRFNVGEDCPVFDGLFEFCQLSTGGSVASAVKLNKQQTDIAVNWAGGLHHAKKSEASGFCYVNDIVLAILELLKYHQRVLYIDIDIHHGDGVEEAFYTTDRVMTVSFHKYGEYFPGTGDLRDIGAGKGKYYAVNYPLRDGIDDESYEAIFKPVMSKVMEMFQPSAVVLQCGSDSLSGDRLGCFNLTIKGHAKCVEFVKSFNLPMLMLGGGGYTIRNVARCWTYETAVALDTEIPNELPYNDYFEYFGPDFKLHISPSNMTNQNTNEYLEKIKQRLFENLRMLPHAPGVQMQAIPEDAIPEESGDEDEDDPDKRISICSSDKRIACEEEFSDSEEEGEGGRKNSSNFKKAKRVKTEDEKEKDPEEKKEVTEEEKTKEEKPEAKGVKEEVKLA
pIC50: −log10 of the molar value.
measurement.kind: pIC50

Tell me pIC50 of COc1cc2c(cc1OC)-c1c(OC)c(OC)cc3ccnc(c13)C2=O [Compound 57704] when tested on HDAC1 (Homo sapiens).
< 4.30

----------
Items are presented alongside their recorded CC50 at 24 h.
experiment: Cytotoxicity (MTT or CellTiter 96), CD8+-depleted MNC; assay type: cell-based; conditions: human, CD8+-depleted mononuclear cells (MNC) from whole blood; 24 hour incubation; mean of 2 replicates
Record the value in µM, omitting the unit from your answer.

- compound: "COc1cc2c(cc1OC)-c1c(OC)c(OC)cc3ccnc(c13)C2=O [Compound 57704]"
  CC50 at 24 h / µM: 80

Give CC50 at 24 h for the following compound: O=C(CCCCCCC(=O)Nc1ccccc1)NO [SAHA, vorinostat, reference compound]
0.7

----------
test system: latent HIV-1 in ACH2 and U1 cell lines; experiment: Latent HIV-1 reactivation, range across cell lines of virus latency; format: cell-based; conditions: Human immunodeficiency virus 1, ACH-2, read-out: EC50, reactivation of latent HIV-1 gene expression
measurement.kind: EC50

Give EC50 for the following compound: COc1cc2c(cc1OC)-c1c(OC)c(OC)cc3ccnc(c13)C2=O
5 to 9 µM
